Numbers sourced from ChEMBL document CHEMBL3870302.

test system: Hepatitis C virus; assay: Antiviral activity against Hepatitis C virus genotype 1b infected in human HuH5.2 cells after 72 hrs by luciferase reporter gene assay; format: functional, cell-based, Hepacivirus hominis; settings: Hepatitis C virus, genotype 1b, Huh-5-2, 72 h
Entries and their pEC50 values follow.
pEC50 is defined as minus the log10 of a concentration measured in mol/L.

Field: example entries. Status: answers known.
- STRUCTURE_NOTATION: "CCOc1cc(C)c(S(=O)(=O)N2CCN(Cc3ccc4c(c3)OCO4)CC2)cc1C"
  MEASUREMENT_TARGET: "Hepatitis C virus"
  pEC50: 4.46
- STRUCTURE_NOTATION: "CCC[C@H](NC(=O)[C@@H]1[C@H]2CCC[C@H]2CN1C(=O)[C@@H](NC(=O)[C@@H](NC(=O)c1cnccn1)C1CCCCC1)C(C)(C)C)C(=O)C(=O)NC1CC1"
  MEASUREMENT_TARGET: "Hepatitis C virus"
  pEC50: 6.10
- STRUCTURE_NOTATION: "C/C(=N\\Nc1ncnc2sc3c(c12)CCCC3)c1cccnc1"
  MEASUREMENT_TARGET: "Hepatitis C virus"
  pEC50: 4.10
- STRUCTURE_NOTATION: "CCc1sc2ncnc(N/N=C(/C)c3cc(O)ccc3O)c2c1C"
  MEASUREMENT_TARGET: "Hepatitis C virus"
  pEC50: 6.10
- STRUCTURE_NOTATION: "Cc1nc(NNC(=O)c2ccccc2O)c2c3c(sc2n1)CCCC3"
  MEASUREMENT_TARGET: "Hepatitis C virus"
  pEC50: 5.90

Task: Can you look up the measured pEC50 of `C/C(=N\Nc1ncnc2sc3c(c12)CCC3)c1ccccc1O` for me?
Output: 5.76

Task: What value of pEC50 has been reported for the following molecule? `C/C(=N\Nc1ncnc2sc3c(c12)CCCC3)c1cccc(O)c1`
Output: 3.39

Task: Which value of pEC50 has been reported for `C/C(=N\Nc1ncnc2sc3c(c12)CCCC3)c1cccs1` in the records?
Output: 4.64

Task: I am curious: what pEC50 value has been reported for `C/C(=N\Nc1ncnc2sc3c(c12)CCCC3)c1ccc[nH]1` ?
Output: 5.28

Task: Can you look up the measured pEC50 of `O=C(NNc1ncnc2sc3c(c12)CCCC3)c1ccccn1` for me?
Output: 5.83

###

test system: Hepatitis C virus; test: Antiviral activity against Hepatitis C virus genotype 1b infected in human HuH5.2 cells after 72 hrs by luciferase reporter gene assay; type: functional, cell-based, Hepacivirus hominis; conditions: Hepatitis C virus, genotype 1b, Huh-5-2, 72 h
pEC50: −log10 of the molar value.
Values of pEC50 greater than or equal to 6 map to Fulfilled; values below map to Not fulfilled.

Example entries and their recorded answers appear below.
- COMPOUND: "COC(=O)c1ccc(N2C(=O)CC(S/C(=N\\c3ccccc3)NCc3ccc4c(c3)OCO4)C2=O)cc1 (configuration not stated)"
  CAT: "Not fulfilled"
- COMPOUND: "O=C(NNc1ncnc2sc3c(c12)CCCC3)c1cc2ccccc2[nH]1"
  CAT: "Not fulfilled"
- COMPOUND: "O=C(NNc1ncnc2sccc12)c1ccccn1"
  CAT: "Fulfilled"
- COMPOUND: "Cc1cc(O)cc(O)c1/C=N/NC(=O)COc1ccc2ccccc2c1"
  CAT: "Not fulfilled"

Task: Could you tell me if the measured pEC50 of `O=C(NNc1ncnc2sc3c(c12)CCC3)c1cnccn1` reaches 6 or more?
Output: Fulfilled

Task: Check the entry `O=C(NNc1ncnc2sc3c(c12)CCCC3)c1ccccc1O` : does pEC50 equal or exceed 6?
Output: Fulfilled

Task: Can `C/C(=N\Nc1ncnc2sc3ccccc3c12)c1cnccn1` be said to have pEC50 at or above 6?
Output: Fulfilled

Task: Does the reported pEC50 for `O=C(NNc1ncnc2sccc12)c1ccccc1O` fall at or above the 6 mark?
Output: Not fulfilled
